- Assay Remarks: in vivo
- Format: in vivo
- Protocol Conditions: mouse, in vivo; oral, mice, 3 days
Recorded Metric: LD50 at 72 h
Write the numeric value and append its unit.

**Q:** If you can, please state the reported LD50 at 72 h value of O=c1c(F)cn(C2CCCO2)c(=O)n1C1CCCO1 (stereo not shown) .
**A:** 2980 mg/kg

Every entry's value here was drawn from patent US4371535A.
